Field Ki: reported value for Beta-1 adrenergic receptor (Rattus norvegicus); entries drawn from several documents.

* CC(C)(C)C1Cc2c(ccc(O)c2O)[C@H](CN)O1 (stereo partly specified) | > 10 µM
* CC/C=N/OCC(O)CNC(C)C (stereo unspecified) | 2.2 µM
* CCOc1ccccc1N1CCN(CC(O)CN2C(=O)NC(C)(c3ccccc3)C2=O)CC1.Cl (racemic) | > 10 µM

Name the reported Ki value associated with the molecule C=CCNCC(O)COc1ccc2c(=O)c3ccccc3oc2c1.Cl (stereo unspecified)
44.4 µM

Name the reported Ki value associated with the molecule CC(C)NCC1OCCc2cc(O)c(O)cc21 (stereo unspecified)
1.49 µM

Name the reported Ki value associated with the molecule NCC1OCCc2c1ccc(O)c2O (stereo unspecified)
40.3 µM
